Reference source: patent US20210355229A1

Listed here: items and their measured EC50.
Target: T1, human OX40-FC-biotin (human OX40 recombinant protein with Fc tag, Acro Biosystems OX40-H5255, labeled with … (human, UniProt P43489 29-216, labeled with biotin (site not stated)))
T1 construct: range 29-216; Bought (Acro Biosystems OX40-H5255; printed once as OXO-H5255), expressed in HEK293; also called human Bio-OX40-FC; not shown: Fc tag of the bought protein
T1 sequence (looked up): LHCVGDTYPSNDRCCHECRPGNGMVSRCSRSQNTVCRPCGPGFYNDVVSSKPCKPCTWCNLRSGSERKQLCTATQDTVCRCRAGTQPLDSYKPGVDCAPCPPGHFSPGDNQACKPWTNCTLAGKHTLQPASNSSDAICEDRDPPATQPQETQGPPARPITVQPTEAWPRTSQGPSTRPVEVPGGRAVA
Experiment: capture ELISA, biotin-OX40-Fc
Answer in µg/mL, number only, no unit symbol.

Binder	Measure	Number
humanized antibody hu4B5-V14 (antibody, human IgG1, V domains shown, hu4B5 VH4 + hu4B5 VL4; human IgG1 / human Kappa constant regions) VH: QVQLKESGPGLVKPSETLSLTCTVSGFSLTSYGLHWFRQPPGKGLEWLGVIWSGGSTDYNAAFISRLTISKEDSKSQVSLKLSSVTAADTAVYYCAREEYDVWGQGTTVTVSS VL: DIQMTQSPSSLSASVGDRVTITCRASQDISNYLNWYQQKPGGTVKLLIYYTSRLHSGVPSRFSGSGSGTDYTLTISSLQPEDVATYFCQQGNTLPWTFGGGTKVEIK	EC50	0.536

I'd like to know its EC50. The binder in question is chimeric antibody Ch4B5 (antibody, V domains shown) VH: QVQLKQSGPGLVQPSQSLSITCTVSGFSLTSYGLHWFRQSPGKGLEWLGVIWSGGSTDYNAAFISRLSISKDDSKSQVFFKMNSLQADDTAIYYCAREEYDVWGTGTTVTVSS VL: DIQMTQTASSLSASLGDRVTISCRASQDISNYLNWYQQKPDGTVKLLIYYTSRLHSGVPSRFSGSGSGTDYSLTISNLEQEDVATYFCQQGNTLPWTFGGGTKLEIK 0.208

I'd like to know its EC50. The binder in question is humanized antibody 2G3-hu4 (antibody, human IgG1, V domains shown, hu2G3 VH2 + hu2G3 VL2) VH: QVQLQESGPGLVKPSETLSLTCTVSGGSISRYSVHWIRQPPGKGLEWIGMIWDGGNTDYNSALKSRVTISVDTSKNQFSLKLSSVTAADTAVYYCARNPLYFSYAMDYWGQGTLVTVSS VL: DIQMTQSPSSLSASVGDRVTITCRASQDISNYLNWYQQKPGKAPKLLIYYTSRLQSGVPSRFSGSGSGTDYTLTISSLQPEDFATYYCQQVNTFPFTFGQGTKLEIK 2.27
